Values from paper PMC8509773

# Tested on: HOP-62
# Protocol Description: NCI-60 SRB screening (one-dose and five-dose)
# Type: cell-based, human
# Conditions Used: HOP-62, 10 μM, 48 h
Experimental Readout: Growth Percent (%)
Please give a number only; it is taken to be in %.

Before answering, review these 2 worked examples.
COC(=O)[C@]12CC[C@@H](C(C)=O)[C@@H]1[C@H]1CC[C@@H]3[C@@]4(C)C/C(=C\c5cccnc5)C(=O)C(C)(C)[C@@H]4CC[C@@]3(C)[C@]1(C)CC2 = 102.96
C[C@H]1[C@@H]2[C@H]3CC[C@@H]4[C@@]5(C)CC[C@H](O)C(C)(C)[C@@H]5CC[C@@]4(C)[C@]3(C)CC[C@]23CO[C@@]1(C)[C@@H](C(=O)/C=C/c1ccco1)C3 = 104.25

Task item: // returns reported Growth Percent for input COC(=O)[C@]12CC[C@@H](C(=O)/C=C/c3cccnc3)[C@@H]1[C@H]1CC[C@@H]3[C@@]4(C)C/C(=C\c5cccnc5)C(=O)C(C)(C)[C@@H]4CC[C@@]3(C)[C@]1(C)CC2
Reply: −85.57

---

# Tested on: OVCAR-8
# Protocol Description: NCI-60 SRB screening (one-dose and five-dose)
# Assay type: cell-based, human
# Conditions Used: OVCAR-8, 10 μM, 48 h
Experimental Readout: Growth Percent (%)
Form entry: value (%) — number only.

COC(=O)[C@]12CC[C@@H](C(C)=O)[C@@H]1[C@H]1CC[C@@H]3[C@@]4(C)C/C(=C\c5cccnc5)C(=O)C(C)(C)[C@@H]4CC[C@@]3(C)[C@]1(C)CC2 = 38.71
COC(=O)[C@]12CC[C@@H](C(=O)/C=C/c3cccnc3)[C@@H]1[C@H]1CC[C@@H]3[C@@]4(C)C/C(=C\c5cccnc5)C(=O)C(C)(C)[C@@H]4CC[C@@]3(C)[C@]1(C)CC2 = −34.25
C[C@H]1[C@@H]2[C@H]3CC[C@@H]4[C@@]5(C)CC[C@H](O)C(C)(C)[C@@H]5CC[C@@]4(C)[C@]3(C)CC[C@]23CO[C@@]1(C)[C@@H](C(=O)/C=C/c1ccco1)C3 = 99.33
CC(=O)[C@H]1C[C@]23CC[C@]4(C)[C@H](CC[C@@H]5[C@@]6(C)CCC(=O)C(C)(C)[C@@H]6CC[C@]54C)[C@H]2[C@H](C)[C@@]1(C)OC3 = 104.68
CC(=O)O[C@H]1CC[C@]2(C)[C@H]3CC[C@@H]4[C@H]5[C@H](C)[C@@]6(C)OC[C@]5(CC[C@@]4(C)[C@]3(C)CC[C@H]2C1(C)C)CC6C(C)=O (stereo partly shown) = 92.52
C[C@H]1[C@@H]2[C@H]3CC[C@@H]4[C@@]5(C)CC[C@H](O)C(C)(C)[C@@H]5CC[C@@]4(C)[C@]3(C)CC[C@]23CO[C@@]1(C)C(C(=O)/C=C/c1cccnc1)C3 (stereo partly shown) = 35.05

Note: attention shifts to another entry.
Task item: What reported Growth Percent corresponds to C[C@H]1[C@@H]2[C@H]3CC[C@@H]4[C@@]5(C)C/C(=C\c6cccnc6)C(=O)C(C)(C)[C@@H]5CC[C@@]4(C)[C@]3(C)CC[C@]23CO[C@@]1(C)[C@@H](C(=O)/C=C/c1cccnc1)C3 on OVCAR-8?
Reply: −13.55

---

Growth Percent reference
# Test system: KM-12
# Protocol Description: NCI-60 SRB screening (one-dose and five-dose)
# Assay type: cell-based, human
# Conditions Used: KM-12, 10 μM, 48 h
Please reply with the bare figure in % and do not write the unit itself.

Use the examples below as a reference point.
C[C@H]1[C@@H]2[C@H]3CC[C@@H]4[C@@]5(C)C/C(=C\c6cccnc6)C(=O)C(C)(C)[C@@H]5CC[C@@]4(C)[C@]3(C)CC[C@]23CO[C@@]1(C)[C@@H](C(=O)/C=C/c1cccnc1)C3 [Compound 6] = −55.61
C[C@H]1[C@@H]2[C@H]3CC[C@@H]4[C@@]5(C)CC[C@H](O)C(C)(C)[C@@H]5CC[C@@]4(C)[C@]3(C)CC[C@]23CO[C@@]1(C)C(C(=O)/C=C/c1cccnc1)C3 (stereo partly shown) [Compound 4] = 54.39

Task item: What value of Growth Percent has been reported for the following compound? CC(=O)O[C@H]1CC[C@]2(C)[C@H]3CC[C@@H]4[C@H]5[C@H](C)[C@@]6(C)OC[C@]5(CC[C@@]4(C)[C@]3(C)CC[C@H]2C1(C)C)CC6C(C)=O (stereo partly shown) [Compound 1]
Reply: 78.19

Task item: What does the record list as Growth Percent for C[C@H]1[C@@H]2[C@H]3CC[C@@H]4[C@@]5(C)CC[C@H](O)C(C)(C)[C@@H]5CC[C@@]4(C)[C@]3(C)CC[C@]23CO[C@@]1(C)[C@@H](C(=O)/C=C/c1ccco1)C3 [Compound 5] ?
Reply: 99.96

Task item: So what's the measured Growth Percent for this one? CC(=O)[C@H]1C[C@]23CC[C@]4(C)[C@H](CC[C@@H]5[C@@]6(C)CCC(=O)C(C)(C)[C@@H]6CC[C@]54C)[C@H]2[C@H](C)[C@@]1(C)OC3 [Compound 2]
Reply: 102.54

Task item: // lookup Growth Percent for COC(=O)[C@]12CC[C@@H](C(=O)/C=C/c3cccnc3)[C@@H]1[C@H]1CC[C@@H]3[C@@]4(C)C/C(=C\c5cccnc5)C(=O)C(C)(C)[C@@H]4CC[C@@]3(C)[C@]1(C)CC2 [Compound 7]
Reply: −74.98

Task item: What value of Growth Percent has been reported for the following compound? COC(=O)[C@]12CC[C@@H](C(C)=O)[C@@H]1[C@H]1CC[C@@H]3[C@@]4(C)C/C(=C\c5cccnc5)C(=O)C(C)(C)[C@@H]4CC[C@@]3(C)[C@]1(C)CC2 [Compound 8]
Reply: 60.52

---

Items are presented alongside their recorded Growth Percent.
# Tested on: NCI-H460
# Protocol Description: NCI-60 SRB screening (one-dose and five-dose)
# Format: cell-based, human
# Conditions Used: NCI-H460, 10 μM, 48 h
The answer consists of two parts: a number and, after it, its unit.

Examples with their reported Growth Percent follow.
CC(=O)O[C@H]1CC[C@]2(C)[C@H]3CC[C@@H]4[C@H]5[C@H](C)[C@@]6(C)OC[C@]5(CC[C@@]4(C)[C@]3(C)CC[C@H]2C1(C)C)CC6C(C)=O (stereo partly shown) = 84.90%
C[C@H]1[C@@H]2[C@H]3CC[C@@H]4[C@@]5(C)C/C(=C\c6cccnc6)C(=O)C(C)(C)[C@@H]5CC[C@@]4(C)[C@]3(C)CC[C@]23CO[C@@]1(C)[C@@H](C(=O)/C=C/c1cccnc1)C3 = −45.33%
C[C@H]1[C@@H]2[C@H]3CC[C@@H]4[C@@]5(C)CC[C@H](O)C(C)(C)[C@@H]5CC[C@@]4(C)[C@]3(C)CC[C@]23CO[C@@]1(C)C(C(=O)/C=C/c1cccnc1)C3 (stereo partly shown) = 40.71%

Task item: I would be grateful if you could share the reported Growth Percent for CC(=O)[C@H]1C[C@]23CC[C@]4(C)[C@H](CC[C@@H]5[C@@]6(C)CCC(=O)C(C)(C)[C@@H]6CC[C@]54C)[C@H]2[C@H](C)[C@@]1(C)OC3 .
Reply: 94.87%

Task item: Data request, read-out Growth Percent, for COC(=O)[C@]12CC[C@@H](C(C)=O)[C@@H]1[C@H]1CC[C@@H]3[C@@]4(C)C/C(=C\c5cccnc5)C(=O)C(C)(C)[C@@H]4CC[C@@]3(C)[C@]1(C)CC2
Reply: 70.90%

Task item: Requested read-out: Growth Percent. Entry: COC(=O)[C@]12CC[C@@H](C(=O)/C=C/c3cccnc3)[C@@H]1[C@H]1CC[C@@H]3[C@@]4(C)C/C(=C\c5cccnc5)C(=O)C(C)(C)[C@@H]4CC[C@@]3(C)[C@]1(C)CC2
Reply: −78.43%

Task item: Which Growth Percent value belongs to C[C@H]1[C@@H]2[C@H]3CC[C@@H]4[C@@]5(C)CC[C@H](O)C(C)(C)[C@@H]5CC[C@@]4(C)[C@]3(C)CC[C@]23CO[C@@]1(C)[C@@H](C(=O)/C=C/c1ccco1)C3 ?
Reply: 109.09%

---

The entries below are paired with their reported Growth Percent.
# System: SK-OV-3
# Protocol Description: NCI-60 SRB screening (one-dose and five-dose)
# Format: cell-based, human
# Conditions Used: SK-OV-3, 10 μM, 48 h
Answer in %, number only, no unit symbol.

COC(=O)[C@]12CC[C@@H](C(=O)/C=C/c3cccnc3)[C@@H]1[C@H]1CC[C@@H]3[C@@]4(C)C/C(=C\c5cccnc5)C(=O)C(C)(C)[C@@H]4CC[C@@]3(C)[C@]1(C)CC2 [Compound 7] = −23.10
C[C@H]1[C@@H]2[C@H]3CC[C@@H]4[C@@]5(C)C/C(=C\c6cccnc6)C(=O)C(C)(C)[C@@H]5CC[C@@]4(C)[C@]3(C)CC[C@]23CO[C@@]1(C)[C@@H](C(=O)/C=C/c1cccnc1)C3 [Compound 6] = 58.93
CC(=O)[C@H]1C[C@]23CC[C@]4(C)[C@H](CC[C@@H]5[C@@]6(C)CCC(=O)C(C)(C)[C@@H]6CC[C@]54C)[C@H]2[C@H](C)[C@@]1(C)OC3 [Compound 2] = 118.18
C[C@H]1[C@@H]2[C@H]3CC[C@@H]4[C@@]5(C)CC[C@H](O)C(C)(C)[C@@H]5CC[C@@]4(C)[C@]3(C)CC[C@]23CO[C@@]1(C)C(C(=O)/C=C/c1cccnc1)C3 (stereo partly shown) [Compound 4] = 77.76
COC(=O)[C@]12CC[C@@H](C(C)=O)[C@@H]1[C@H]1CC[C@@H]3[C@@]4(C)C/C(=C\c5cccnc5)C(=O)C(C)(C)[C@@H]4CC[C@@]3(C)[C@]1(C)CC2 [Compound 8] = 93.73
C[C@H]1[C@@H]2[C@H]3CC[C@@H]4[C@@]5(C)CC[C@H](O)C(C)(C)[C@@H]5CC[C@@]4(C)[C@]3(C)CC[C@]23CO[C@@]1(C)[C@@H](C(=O)/C=C/c1ccco1)C3 [Compound 5] = 102.58

Let's switch to this compound now.
Task item: For the compound CC(=O)O[C@H]1CC[C@]2(C)[C@H]3CC[C@@H]4[C@H]5[C@H](C)[C@@]6(C)OC[C@]5(CC[C@@]4(C)[C@]3(C)CC[C@H]2C1(C)C)CC6C(C)=O (stereo partly shown) [Compound 1] , what Growth Percent is on record?
Reply: 98.97
